Target: T1, cynomolgus monkey CD19 on peripheral blood B cells (cynomolgus monkey (Macaca fascicularis), UniProt A0A2K5W8L9 20-557)
T1 construct: whole, on cells; also called cynomolgus monkey B cells
T1 sequence: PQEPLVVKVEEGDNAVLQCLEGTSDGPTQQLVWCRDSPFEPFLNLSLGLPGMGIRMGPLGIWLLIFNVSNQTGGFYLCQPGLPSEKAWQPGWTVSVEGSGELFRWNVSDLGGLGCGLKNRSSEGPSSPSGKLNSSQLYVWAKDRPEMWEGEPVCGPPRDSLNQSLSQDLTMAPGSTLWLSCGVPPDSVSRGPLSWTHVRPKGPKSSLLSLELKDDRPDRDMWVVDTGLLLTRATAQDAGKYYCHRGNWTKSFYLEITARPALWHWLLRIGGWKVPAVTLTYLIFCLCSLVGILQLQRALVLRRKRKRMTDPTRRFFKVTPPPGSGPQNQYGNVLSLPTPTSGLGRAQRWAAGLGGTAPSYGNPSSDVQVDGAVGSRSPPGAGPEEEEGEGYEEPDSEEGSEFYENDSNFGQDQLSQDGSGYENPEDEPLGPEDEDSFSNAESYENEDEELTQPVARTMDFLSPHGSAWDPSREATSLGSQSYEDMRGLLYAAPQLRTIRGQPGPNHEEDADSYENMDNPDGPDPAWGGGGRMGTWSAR
Experiment: FACS, cynomolgus PBMC, CD20+ B cells
Listed binders paired with reported Proportion of chimeric antibody positive cells to B cells (%) at 100 nM
Numbers only here, please. The scale is %.

{"binder": "F5.10.6 (antibody, human IgG1, V domains shown, human-murine chimeric antibody, human IgG1) VH: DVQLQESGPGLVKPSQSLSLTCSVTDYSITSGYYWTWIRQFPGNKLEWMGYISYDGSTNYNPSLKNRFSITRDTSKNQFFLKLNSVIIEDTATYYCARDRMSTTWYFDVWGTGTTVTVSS VL: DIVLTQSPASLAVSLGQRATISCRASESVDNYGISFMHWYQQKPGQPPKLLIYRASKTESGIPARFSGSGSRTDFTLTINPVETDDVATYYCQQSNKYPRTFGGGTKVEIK", "unitString": "%", "reported": 99}

Let us examine a further case.
Return the recorded Proportion of chimeric antibody positive cells to B cells (%) at 100 nM value; entry: F4.272.13 (antibody, human IgG1, V domains shown, human-murine chimeric antibody, human IgG1) VH: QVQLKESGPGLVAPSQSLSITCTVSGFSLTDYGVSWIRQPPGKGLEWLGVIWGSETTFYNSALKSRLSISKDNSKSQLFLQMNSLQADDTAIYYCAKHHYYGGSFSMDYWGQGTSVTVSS VL: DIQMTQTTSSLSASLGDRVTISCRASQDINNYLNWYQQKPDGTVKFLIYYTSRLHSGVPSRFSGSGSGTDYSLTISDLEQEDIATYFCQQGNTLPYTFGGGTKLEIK
9
